test system: rodent lifetime carcinogenesis bioassay, tumor incidence TD50; assay: carcinogenic potency in animals, long-term in vivo studies, CPDB compilation (AID 1745844); conditions: rat; strain Fischer 344; males; by gavage; site: preputial gland; lesion: adenoma, NOS + carcinoma, NOS; dosed 103 weeks; study length 104 weeks
assay_endpoint: TD50

[[record]]
input_smiles = "S=c1[nH]c2ccccc2s1"
experimental_value = "1580 mg/kg/day"

[[record]]
input_smiles = "Nc1ccc([N+](=O)[O-])cc1O"
experimental_value = "392 mg/kg/day"


---

tested on: rodent lifetime carcinogenesis bioassay, tumor incidence TD50; experiment: carcinogenic potency in animals, long-term in vivo studies, CPDB compilation (AID 1745844); conditions: mouse; strain C3Hf/Dp; females; in drinking water; site: liver; lesion: angioma; dosed 60 weeks; study length 105 weeks
Activity calls are given as the source filed them. How the calls were made is not given here.
assay_endpoint: TD50

[[record]]
input_smiles = "C1N2CN3CN1CN(C2)C3"
test_target = "rodent lifetime carcinogenesis bioassay, tumor incidence TD50"
experimental_value = "51900 mg/kg/day (inactive)"


---

tested on: rodent lifetime carcinogenesis bioassay, tumor incidence TD50; assay: carcinogenic potency in animals, long-term in vivo studies, CPDB compilation (AID 1745844); settings: mouse; strain Swiss; both sexes; inhaled; site: lung; lesion: adenocarcinoma; dosed 62 weeks; study length 62 weeks
assay_endpoint: TD50

[[record]]
input_smiles = "CCC=C(CC)[N+](=O)[O-]"
experimental_value = "0.346 mg/kg/day"


---

tested on: rodent lifetime carcinogenesis bioassay, tumor incidence TD50; assay: carcinogenic potency in animals, long-term in vivo studies, CPDB compilation (AID 1745844); settings: rat; strain Fischer 344; males; in feed; site: urinary bladder; lesion: carcinoma; dosed 103 weeks; study length 103 weeks
assay_endpoint: TD50

[[record]]
input_smiles = "CCCCN(CCCCO)N=O"
assay_endpoint = "TD50"
experimental_value = "0.549 mg/kg/day"


---

test system: rodent lifetime carcinogenesis bioassay, tumor incidence TD50; assay: carcinogenic potency in animals, long-term in vivo studies, CPDB compilation (AID 1745844); conditions: mouse; strain C57BL/6JfC3Hf/Nctr x BALB/cStCrlfC3Hf/Nctr inter se; males; in drinking water; site: liver; lesion: hepatocellular carcinoma; dosed 143 weeks; study length 143 weeks
assay_endpoint: TD50

[[record]]
input_smiles = "Nc1ccc(-c2ccc(N)cc2)cc1"
experimental_value = "60.5 mg/kg/day"


---

tested on: rodent lifetime carcinogenesis bioassay, tumor incidence TD50; experiment: carcinogenic potency in animals, long-term in vivo studies, CPDB compilation (AID 1745844); conditions: rat; strain F344/DuCrj; males; in feed; site: urinary bladder; lesion: transitional-cell papilloma; dosed 112 weeks; study length 112 weeks
assay_endpoint: TD50

[[record]]
input_smiles = "Cc1nc(N)cc2[nH]c3ccccc3c12"
experimental_value = "12.3 mg/kg/day"


---

test system: rodent lifetime carcinogenesis bioassay, tumor incidence TD50; test: carcinogenic potency in animals, long-term in vivo studies, CPDB compilation (AID 1745844); conditions: rat; strain Fischer 344; males; in drinking water; site: upper gastrointestinal tract; lesion: several types; types named in the paper; dosed 25 weeks; study length 115 weeks
assay_endpoint: TD50

[[record]]
input_smiles = "O=NN1CCCCCCC1"
assay_endpoint = "TD50"
experimental_value = "0.0512 mg/kg/day"


---

test system: rodent lifetime carcinogenesis bioassay, tumor incidence TD50; assay: carcinogenic potency in animals, long-term in vivo studies, CPDB compilation (AID 1745844); details: rat; strain MRC-Wistar; males; in drinking water; site: liver; lesion: several types; types named in the paper; dosed 41 weeks; study length 70 weeks
assay_endpoint: TD50

[[record]]
input_smiles = "O=NN1CCC(=O)NC1=O"
test_target = "rodent lifetime carcinogenesis bioassay, tumor incidence TD50"
assay_endpoint = "TD50"
experimental_value = "0.0932 mg/kg/day"


---

system: rodent lifetime carcinogenesis bioassay, tumor incidence TD50; test: carcinogenic potency in animals, long-term in vivo studies, CPDB compilation (AID 1745844); conditions: mouse; strain Charles River CD1; females; in feed; site: liver; lesion: hepatocellular adenoma; dosed 78 weeks; study length 78 weeks
Active and inactive are the calls of the source. No rule for the calls is given here.
assay_endpoint: TD50

[[record]]
input_smiles = "CCN(CC)C(=O)c1cccc(C)c1"
experimental_value = "150000 mg/kg/day (inactive)"

[[record]]
input_smiles = "Cc1ccc(C)c(OCCCC(C)(C)C(=O)O)c1"
experimental_value = "6600 mg/kg/day (inactive)"


---

tested on: rodent lifetime carcinogenesis bioassay, tumor incidence TD50; assay: carcinogenic potency in animals, long-term in vivo studies, CPDB compilation (AID 1745844); details: mouse; strain ASH-CS1; females; in feed; site: liver; lesion: hyperplastic nodule; dosed 80 weeks; study length 80 weeks
Activity calls are given as the source filed them. How the calls were made is not given here.
assay_endpoint: TD50

[[record]]
input_smiles = "C/C=C/C=C/C(=O)O"
test_target = "rodent lifetime carcinogenesis bioassay, tumor incidence TD50"
assay_endpoint = "TD50"
experimental_value = "362000 mg/kg/day (inactive)"


---

system: rodent lifetime carcinogenesis bioassay, tumor incidence TD50; assay: carcinogenic potency in animals, long-term in vivo studies, CPDB compilation (AID 1745844); settings: rat; strain Fischer 344; males; by gavage; site: pituitary gland, anterior; lesion: adenoma, NOS + carcinoma, NOS; dosed 103 weeks; study length 104 weeks
Active and inactive are the calls of the source. No rule for the calls is given here.
assay_endpoint: TD50

[[record]]
input_smiles = "CC1(C)S[C@@H]2[C@H](NC(=O)COc3ccccc3)C(=O)N2[C@H]1C(=O)O"
test_target = "rodent lifetime carcinogenesis bioassay, tumor incidence TD50"
experimental_value = "874 mg/kg/day (inactive)"


---

tested on: rodent lifetime carcinogenesis bioassay, tumor incidence TD50; test: carcinogenic potency in animals, long-term in vivo studies, CPDB compilation (AID 1745844); settings: mouse; strain B6C3F1; males; inhaled; site: liver; lesion: hepatoblastoma + hepatocellular carcinoma; dosed 26 weeks; study length 104 weeks
assay_endpoint: TD50 (mg/kg/day)

[[record]]
input_smiles = "C=CC=C"
uom = "mg/kg/day"
experimental_value = 60


---

system: rodent lifetime carcinogenesis bioassay, tumor incidence TD50; assay: carcinogenic potency in animals, long-term in vivo studies, CPDB compilation (AID 1745844); conditions: rat; strain Fischer 344; males; in feed; site: all sites; lesion: mononuclear-cell leukemia; dosed 12 weeks; study length 103 weeks
assay_endpoint: TD50

[[record]]
input_smiles = "OCC(CO)(CBr)CBr"
test_target = "rodent lifetime carcinogenesis bioassay, tumor incidence TD50"
assay_endpoint = "TD50"
experimental_value = "22.5 mg/kg/day"


---

tested on: rodent lifetime carcinogenesis bioassay, tumor incidence TD50; assay: carcinogenic potency in animals, long-term in vivo studies, CPDB compilation (AID 1745844); details: rat; strain BR 46; both sexes; i.v.; site: any site (literature study); lesion: malignant tumor; dosed 106 weeks; study length 126 weeks
Calls of active or inactive are those of the source. No rule for the calls is given here.
assay_endpoint: TD50

[[record]]
input_smiles = "Cn1cnc2nc(N)[nH]c(=O)c21"
test_target = "rodent lifetime carcinogenesis bioassay, tumor incidence TD50"
experimental_value = "8.24 mg/kg/day (inactive)"


---

system: rodent lifetime carcinogenesis bioassay, tumor incidence TD50; assay: carcinogenic potency in animals, long-term in vivo studies, CPDB compilation (AID 1745844); conditions: mouse; strain C3H/HeN-MTV-/Nctr (MTV-); females; in feed; site: cervix uteri; lesion: adenocarcinoma; dosed 123 weeks; study length 123 weeks
assay_endpoint: TD50 (mg/kg/day)

[[record]]
input_smiles = "CC/C(=C(/CC)c1ccc(O)cc1)c1ccc(O)cc1"
assay_endpoint = "TD50"
uom = "mg/kg/day"
experimental_value = 1.66


---

test system: rodent lifetime carcinogenesis bioassay, tumor incidence TD50; assay: carcinogenic potency in animals, long-term in vivo studies, CPDB compilation (AID 1745844); conditions: rat; strain Fischer 344; males; in feed; site: thyroid gland; lesion: follicular-cell adenoma; dosed 99 weeks; study length 103 weeks
assay_endpoint: TD50 (mg/kg/day)

[[record]]
input_smiles = "CCC1(c2ccccc2)C(=O)NCNC1=O"
test_target = "rodent lifetime carcinogenesis bioassay, tumor incidence TD50"
experimental_value = 174


---

system: rodent lifetime carcinogenesis bioassay, tumor incidence TD50; test: carcinogenic potency in animals, long-term in vivo studies, CPDB compilation (AID 1745844); conditions: rat; strain Sprague-Dawley Spartan; females; in feed; site: liver; lesion: several types; types named in the paper; dosed 103 weeks; study length 103 weeks
assay_endpoint: TD50

[[record]]
input_smiles = "Clc1cc2c(cc1Cl)Oc1cc(Cl)c(Cl)cc1O2"
assay_endpoint = "TD50"
experimental_value = "1.49e-05 mg/kg/day"


---

tested on: rodent lifetime carcinogenesis bioassay, tumor incidence TD50; test: carcinogenic potency in animals, long-term in vivo studies, CPDB compilation (AID 1745844); details: rat; strain Fischer 344; females; by gavage; site: liver; lesion: hepatocellular adenoma + hepatocellular carcinoma + neoplastic nodule; dosed 77 weeks; study length 109 weeks
assay_endpoint: TD50 (mg/kg/day)

[[record]]
input_smiles = "COc1ccc(N)c(C)c1"
experimental_value = 1100

